Molecular target: IMP-1 (Serratia marcescens, UniProt P52699)
Sequence (P52699 whole entry, looked up): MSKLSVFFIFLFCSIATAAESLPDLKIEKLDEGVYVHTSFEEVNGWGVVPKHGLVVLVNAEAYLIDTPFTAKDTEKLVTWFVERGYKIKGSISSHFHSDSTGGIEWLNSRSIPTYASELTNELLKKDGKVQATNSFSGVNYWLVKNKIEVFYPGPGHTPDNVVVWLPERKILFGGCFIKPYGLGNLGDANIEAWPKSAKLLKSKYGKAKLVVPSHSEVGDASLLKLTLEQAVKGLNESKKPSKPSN
Assay: biochemical
Format: biochemical
Details: fluorescence assay with CCF2-FA substrate; read-out: IMP-1 IC50
measurementLabel: pIC50
Convention used: pIC50 is expressed as -log10 of the molar concentration.

Consider the worked cases shown below.
# compound, pIC50
measured = [
    ("NS(=O)(=O)c1cccc(-c2cccc(-n3nccn3)c2)c1-c1nn[nH]n1 [Example 70]", 6.98),
    ("NS(=O)(=O)c1cccc(-c2cccnc2)c1-c1nn[nH]n1 [Example 19]", 5.75),
    ("NS(=O)(=O)c1nccc(N2CCC(Cc3ccncc3)CC2)c1-c1nnn[nH]1 [Example 238]", 6.72),
]

Shifting focus to the compound that follows.
Ask | Given NS(=O)(=O)c1cccc(-c2ccc(O)nc2)c1-c1nn[nH]n1 [Example 80] , state its recorded pIC50.
Reply | 5.62
